Reported IC50 values are given for each entry in this list.
Target: ALK (baculovirus expressed human ALK kinase domain F1098-K1410) (Homo sapiens, UniProt Q9UM73)
Sequence (Q9UM73 1098-1410): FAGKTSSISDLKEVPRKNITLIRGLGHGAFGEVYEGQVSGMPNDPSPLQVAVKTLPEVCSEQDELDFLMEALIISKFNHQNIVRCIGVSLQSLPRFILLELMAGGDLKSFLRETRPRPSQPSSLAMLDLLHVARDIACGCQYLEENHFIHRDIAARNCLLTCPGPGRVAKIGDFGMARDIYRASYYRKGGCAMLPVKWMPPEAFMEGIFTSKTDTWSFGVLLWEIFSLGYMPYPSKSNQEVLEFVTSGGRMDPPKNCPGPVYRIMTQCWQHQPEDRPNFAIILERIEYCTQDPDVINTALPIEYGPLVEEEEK

Guide cases for IC50, answers given:
[
  {
    "molecule": "COc1cc2c(-c3ccc(O)c(Cl)c3)nc3[nH]nc(C)c3c2cc1OCC(F)(F)F",
    "IC50": "100 to 999 nM"
  },
  {
    "molecule": "Cc1n[nH]c2cc(-c3ccc(O)cc3)c3ccccc3c12",
    "IC50": "100 to 999 nM"
  },
  {
    "molecule": "COc1c(OCCN2CCN(CC(C)C)CC2)cc(F)c2c(-c3ccc(O)c(Cl)c3)nc3[nH]nc(C)c3c12",
    "IC50": "≤ 99 nM"
  },
  {
    "molecule": "COCCOc1cc(F)c2c(-c3ccc(O)c(Cl)c3)nc3[nH]nc(C)c3c2c1F",
    "IC50": "≤ 99 nM"
  },
  {
    "molecule": "CCN1CCC(COc2cc3c(cc2OC)c(-c2ccc(O)c(Cl)c2)nc2[nH]nc(C)c23)CC1",
    "IC50": "≤ 99 nM"
  },
  {
    "molecule": "COc1cc2c(-c3ccc(O)cc3F)nc3[nH]nc(C)c3c2cc1OC",
    "IC50": "≤ 99 nM"
  }
]

Input line: Report IC50, nothing else, for this molecule: COc1c(OCCN(C)CCN(C)C)cc(F)c2c(-c3ccc(O)c(Cl)c3)nc3[nH]nc(C)c3c12
Output line: ≤ 99 nM

Input line: Report IC50, nothing else, for this molecule: COc1cc2c(-c3ccc(O)c(Cl)c3)nc3[nH]nc(C)c3c2cc1OCC1CCCO1 (centres unmarked)
Output line: ≤ 99 nM

* * *

Reported IC50 values are given for each entry in this list.
Biological target: ALK (baculovirus expressed human ALK kinase domain F1098-K1410) (Homo sapiens)

Input line: With ALK (baculovirus expressed human ALK kinase domain F1098-K1410) (Homo sapiens) as the test system, provide measured IC50 for this molecule: Cc1n[nH]c2nc(-c3ccc(O)c(Cl)c3)c3ccccc3c12
Output line: ≤ 99 nM

* * *

Target: ALK (baculovirus expressed human ALK kinase domain F1098-K1410) (Homo sapiens, UniProt Q9UM73)
pIC50: −log10 of the molar value.
measured.property: pIC50

Guide cases for pIC50, answers given:
[
  {
    "smiles.code": "COCCOc1ccc2c(-c3ccc(O)cc3)nc3[nH]nc(C)c3c2c1OCCOC",
    "pIC50": "≥ 7.00"
  },
  {
    "smiles.code": "COc1c(OCCN2CCOCC2)cc(F)c2c(-c3ccc(O)c(Cl)c3)nc3[nH]nc(C)c3c12",
    "pIC50": "≥ 7.00"
  },
  {
    "smiles.code": "COc1cc2c(-c3cc(Br)c(O)cc3F)nc3[nH]nc(C)c3c2cc1OC",
    "pIC50": "≥ 7.00"
  },
  {
    "smiles.code": "COc1cc2c(cc1C)c(-c1ccc(O)cc1)nc1[nH]nc(C)c12",
    "pIC50": "≥ 7.00"
  }
]

Input line: Report pIC50, nothing else, for this compound: COc1cc2c(-c3ccc(O)c(OC(F)F)c3)nc3[nH]nc(C)c3c2cc1OC
Output line: 5.70 to 6.00

Input line: Report pIC50, nothing else, for this compound: Cc1n[nH]c2nc(-c3ccc(O)cc3)c3ccccc3c12
Output line: ≥ 7.00

Input line: Report pIC50, nothing else, for this compound: COc1cc2c(-c3cc(Cl)c(O)cc3Cl)nc3[nH]nc(C)c3c2cc1OC
Output line: ≥ 7.00

Input line: Report pIC50, nothing else, for this compound: COc1ccc2c(-c3ccc(O)cc3)nc3[nH]nc(C)c3c2c1C
Output line: ≥ 7.00

Input line: Report pIC50, nothing else, for this compound: Cc1n[nH]c2nc(-c3ccc(O)c(Cl)c3)c3cc4c(cc3c12)OCO4
Output line: ≥ 7.00

Input line: Report pIC50, nothing else, for this compound: CCN(CCOc1cc(F)c2c(-c3ccc(O)c(Cl)c3)nc3[nH]nc(C)c3c2c1OC)CCN(C)C
Output line: ≥ 7.00

Input line: Report pIC50, nothing else, for this compound: COc1cc2c(cc1C)c(-c1ccc(O)c(Cl)c1)nc1[nH]nc(C)c12
Output line: ≥ 7.00

Input line: Report pIC50, nothing else, for this compound: COc1cc2c(-c3ccc(O)c(Cl)c3)nc3[nH]nc(C(F)(F)F)c3c2cc1OC
Output line: 6.00 to 7.00

Input line: Report pIC50, nothing else, for this compound: COc1ccc2c(-c3ccc(O)c(C)c3)nc3[nH]nc(C)c3c2c1OC
Output line: ≥ 7.00

Input line: Report pIC50, nothing else, for this compound: COc1cc2c(c(-c3ccc(O)cc3)nc3[nH]nc(C)c32)c(OC)c1OC
Output line: ≥ 7.00

Input line: Report pIC50, nothing else, for this compound: COc1cc(-c2nc3[nH]nc(C)c3c3cc(OC)c(OC)cc23)ccc1O
Output line: 6.00 to 7.00

Input line: Report pIC50, nothing else, for this compound: Cc1n[nH]c2nc(-c3ccc(O)c(Cl)c3)c3cc4c(cc3c12)OCCO4
Output line: ≥ 7.00

Input line: Report pIC50, nothing else, for this compound: COc1c(OCCN2CCCN(C)CC2)cc(F)c2c(-c3ccc(O)c(Cl)c3)nc3[nH]nc(C)c3c12
Output line: ≥ 7.00
